Target: T1, recombinant human TIGIT (Sino Biological) (human, UniProt Q495A1 22-138)
T1 construct: Bought protein; NP_776160.2; also called human TIGIT antigen; hTIGIT
T1 sequence: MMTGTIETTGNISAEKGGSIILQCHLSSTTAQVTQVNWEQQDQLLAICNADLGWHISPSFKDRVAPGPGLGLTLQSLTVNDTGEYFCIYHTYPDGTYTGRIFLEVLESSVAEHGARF
Experiment: SPR single cycle kinetics; KD divided by KD of the VH0/Vκ0 chimeric antibody;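 also: biacore T200 SPR at 25 °C, IgG captured on anti-human chip, TIGIT analyte in four rising concentrations, 210 s association each, 900 s dissociation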
# Relative KD annotations
property name: Relative KD

[[record]]
binder = "7A6 VH3/Vκ2 humanized antibody (human IgG1, kappa) (antibody, V domains shown, Tested as IgG in supernatant of transiently transfected HEK293 EBNA cells) VH: QVQLQESGPGLVKPSQTLSLTCTVTGYSITSDYAWNWIRQPPGKGLEWMGYISYSGSARYNPSLKSRVTISRDTSKNQFSLKLSSVTAEDTATYYCARKGYPAYFAYWGQGTLVTVSS VL: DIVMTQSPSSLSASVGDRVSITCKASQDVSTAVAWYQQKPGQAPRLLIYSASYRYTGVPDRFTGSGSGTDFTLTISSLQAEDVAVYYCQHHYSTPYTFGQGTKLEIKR"
recorded_result = 1.48

[[record]]
binder = "7A6 VH3/Vκ3 humanized antibody (human IgG1, kappa) (antibody, V domains shown, Tested as IgG in supernatant of transiently transfected HEK293 EBNA cells) VH: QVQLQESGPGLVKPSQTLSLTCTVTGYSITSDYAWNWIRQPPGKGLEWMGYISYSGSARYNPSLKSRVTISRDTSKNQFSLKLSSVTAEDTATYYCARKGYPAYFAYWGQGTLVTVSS VL: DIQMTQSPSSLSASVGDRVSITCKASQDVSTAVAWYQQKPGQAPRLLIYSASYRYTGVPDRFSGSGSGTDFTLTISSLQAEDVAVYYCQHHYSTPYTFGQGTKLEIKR"
recorded_result = 1.38

[[record]]
binder = "7A6 VH4/Vκ5 humanized antibody (human IgG1, kappa) (antibody, V domains shown, Tested as IgG in supernatant of transiently transfected HEK293 EBNA cells) VH: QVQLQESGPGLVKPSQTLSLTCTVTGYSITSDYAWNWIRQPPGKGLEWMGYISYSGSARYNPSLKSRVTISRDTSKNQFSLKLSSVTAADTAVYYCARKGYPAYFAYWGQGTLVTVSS VL: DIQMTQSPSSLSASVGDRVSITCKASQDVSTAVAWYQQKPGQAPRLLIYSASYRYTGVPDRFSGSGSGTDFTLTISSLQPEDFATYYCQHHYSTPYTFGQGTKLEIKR"
recorded_result = 1.41

[[record]]
binder = "7A6 VH2/Vκ5 humanized antibody (human IgG1, kappa) (antibody, V domains shown, Tested as IgG in supernatant of transiently transfected HEK293 EBNA cells) VH: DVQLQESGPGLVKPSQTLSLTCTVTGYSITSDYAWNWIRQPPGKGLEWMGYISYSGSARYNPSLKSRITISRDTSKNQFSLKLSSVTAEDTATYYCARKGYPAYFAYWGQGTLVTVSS VL: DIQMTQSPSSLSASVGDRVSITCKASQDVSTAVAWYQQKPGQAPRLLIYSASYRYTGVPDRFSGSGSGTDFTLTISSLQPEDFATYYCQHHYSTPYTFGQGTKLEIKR"
recorded_result = 1.16

[[record]]
binder = "7A6 VH3/Vκ4 humanized antibody (human IgG1, kappa) (antibody, V domains shown, Tested as IgG in supernatant of transiently transfected HEK293 EBNA cells) VH: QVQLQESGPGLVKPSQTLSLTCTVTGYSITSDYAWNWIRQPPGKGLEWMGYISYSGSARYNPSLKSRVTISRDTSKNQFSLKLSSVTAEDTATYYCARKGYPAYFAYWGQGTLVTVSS VL: DIQMTQSPSSLSASVGDRVTITCRASQDVSTAVAWYQQKPGQAPRLLIYSASYRYTGVPDRFSGSGSGTDFTLTISSLQAEDVAVYYCQHHYSTPYTFGQGTKLEIKR"
recorded_result = 1.84


Origin of measurements: patent US20250064909A1
